Experimental Target: T1, 4H3817-bN
T1 chain: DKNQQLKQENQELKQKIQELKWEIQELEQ
Test Description: two-hybrid library CCNG1;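 also: natural log of median RNA to DNA barcode read ratio; higher means stronger binding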
Grouping key: interaction score. Bins: low (below -1), middle (-1 to below -0.5), high (-0.5 or more)

Example cases with answers are listed next.
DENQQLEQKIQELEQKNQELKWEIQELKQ [4H1338-bN] = high
DKNQQLKQEIQELEQENQELKWKIQELEQ [4H3613-bN] = middle
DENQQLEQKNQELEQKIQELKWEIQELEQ [4H1449-bN] = low
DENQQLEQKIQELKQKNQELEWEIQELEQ [4H1393-bN] = low
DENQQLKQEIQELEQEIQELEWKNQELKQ [4H1544-bN] = high
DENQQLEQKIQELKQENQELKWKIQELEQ [4H1373-bN] = middle

Exam item: Would you mind sorting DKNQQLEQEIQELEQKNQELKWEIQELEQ [4H3129-bN] into the appropriate category?
Marked response: low

Exam item: Would you mind sorting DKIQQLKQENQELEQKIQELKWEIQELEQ [4H2729-bN] into the appropriate category?
Marked response: middle

Exam item: Would you mind sorting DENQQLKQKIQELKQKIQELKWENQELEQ [4H1899-bN] into the appropriate category?
Marked response: middle

Exam item: Would you mind sorting DKNQQLEQEIQELKQKIQELEWENQELKQ [4H3172-bN] into the appropriate category?
Marked response: middle

Exam item: Would you mind sorting DKNQQLKQEIQELEQKIQELKWKNQELEQ [4H3631-bN] into the appropriate category?
Marked response: high

Exam item: Would you mind sorting DKNQQLKQEIQELEQKNQELEWKIQELKQ [4H3638-bN] into the appropriate category?
Marked response: high

Data credit: paper PMC10397247
